- target_entity: HIV-1 RRE IIB RNA
- experimental_details: Dot blot assay, 32P-labeled RRE IIB titrated with BPBAs
- Assay type: binding
- condition_details: read-out: Kd (dissociation constant), 32P-labeled RRE IIB titrated with increasing concentration of peptide, average of at least three experiments
pKd: −log10 of the molar value.
Listing of entries alongside the reported pKd.
property: pKd

(KBBAKFBPA)2 * KBBAKKY [BPBA2]	5.48
(FBPAYFBPA)2 * NKSY [BPBA3]	5.06
(KBBAYK)2 * HKKY [BPBA8]	4.06
(KKKBBA)2 * FBPATSY [BPBA4]	4.57
(WKK)2 * KBBAYWY [BPBA1]	5.85
(KKBBAK)2 * KLKY [BPBA7]	4.23
(KKBBAF)2 * KKWY [BPBA5]	4.57
